Values were extracted from paper PMC6018403.

- TEST SUMMARY: Multi-component pharmacokinetic study of GQD, GQD-GC and single herb extracts in rats (plasma, LC/MS/MS)
- Format: in vivo, Sprague-Dawley rats
- CONDITIONS USED: male, Sprague-Dawley, rat; GQD group: rats, oral GQD extract 18.9 g/kg, plasma; read-out: T1/2 (converted)
# half-life listing for each entry below
Give your result in h as a bare value.

These recorded examples may help you get a feel for the data.
COc1ccc(-c2coc3c(C4OC(COC5OCC(O)(CO)C5O)C(O)C(O)C4O)c(O)ccc3c2=O)cc1 (stereo not drawn)	7.03
COc1cc2c(cc1O)CC[n+]1cc3c(OC)c(OC)ccc3cc1-2	6.97

Field: next compound
Prompt: Complete the entry with half-life for O=c1c(-c2ccc(O)cc2)coc2cc(O[C@@H]3O[C@H](CO)[C@@H](O)[C@H](O)[C@H]3O)cc(O)c12
Response: 6.93
